Recorded values, source patent US20260152527A1.

test: In vivo topical administration pharmacokinetics of K173, rabbit (aqueous humor, cornea); settings: aqueous humor, topical or ocular, 5 mg/ml solution, 35 L per eye, Group 2 (4 doses), topical 5 mg/ml, 1 hr post-last dose, OS, Mean, read-out: K173 Concentrations (ng/mL) in Rabbit Aqueous Humor OS Sample, Mean
Positions of bridges follow the written chain, without caps; N, C: chain ends. Non-standard residues stand in square brackets, D forms with d. Residues, ends and D or L forms follow the SMILES beside them. Triazole bridges read from a SMILES are 1,4-linked. *: point of attachment. Benzoyl(3,5-(OH)2) = O=C(c1cc(O)cc(O)c1)*; Lys(N3) = [N-]=[N+]=NCCCC[C@H](N)C(=O)O; dPhe(4-F) = N[C@H](Cc1ccc(F)cc1)C(=O)O; Nle = CCCC[C@H](N)C(=O)O; Pra = C#CC[C@H](N)C(=O)O
observable: level at 1 h (ng/mL)
Give bare numbers, in ng/mL.

Consider the molecule shown here: CCCC[C@H](NC(=O)c1cc(O)cc(O)c1)C(=O)N[C@H]1CCCCn2cc(nn2)C[C@@H](C(N)=O)NC(=O)[C@H](Cc2c[nH]c3ccccc23)NC(=O)[C@H](CCCNC(=N)N)NC(=O)[C@@H](Cc2ccc(F)cc2)NC(=O)[C@H](Cc2c[nH]cn2)NC1=O [KR-072] ({Benzoyl(3,5-(OH)2)}-[Nle][Lys(N3)]H[dPhe(4-F)]RW[Pra]-NH2; triazole 2-7) What is its recorded level at 1 h?
2.49

* * *

assay: In vivo topical administration pharmacokinetics of K173, rabbit (aqueous humor, cornea); details: aqueous humor, topical or ocular, 5 mg/ml, Group 1 (single dose), topical 5 mg/ml, 24 hr post-last dose, OD, Mean, read-out: K173 Concentrations (ng/mL) in Rabbit Aqueous Humor OD Sample, Mean
Positions of bridges follow the written chain, without caps; N, C: chain ends. Non-standard residues stand in square brackets, D forms with d. Residues, ends and D or L forms follow the SMILES beside them. Triazole bridges read from a SMILES are 1,4-linked. *: point of attachment. Benzoyl(3,5-(OH)2) = O=C(c1cc(O)cc(O)c1)*; Lys(N3) = [N-]=[N+]=NCCCC[C@H](N)C(=O)O; dPhe(4-F) = N[C@H](Cc1ccc(F)cc1)C(=O)O; Nle = CCCC[C@H](N)C(=O)O; Pra = C#CC[C@H](N)C(=O)O
observable: level at 24 h (ng/mL)
Give bare numbers, in ng/mL.

For the compound shown here, CCCC[C@H](NC(=O)c1cc(O)cc(O)c1)C(=O)N[C@H]1CCCCn2cc(nn2)C[C@@H](C(N)=O)NC(=O)[C@H](Cc2c[nH]c3ccccc23)NC(=O)[C@H](CCCNC(=N)N)NC(=O)[C@@H](Cc2ccc(F)cc2)NC(=O)[C@H](Cc2c[nH]cn2)NC1=O [KR-072] ({Benzoyl(3,5-(OH)2)}-[Nle][Lys(N3)]H[dPhe(4-F)]RW[Pra]-NH2; triazole 2-7) , give the reported level at 24 h.
3.22

* * *

target: human recombinant MC5R (Homo sapiens); construct: host or cells: CHO-K1/Ga15; test: Ca2+ signalling functional assay, MC5R stable cell line (CHO-K1/Ga15); assay type: cell-based
Positions of bridges follow the written chain, without caps; N, C: chain ends. Non-standard residues stand in square brackets, D forms with d. Residues, ends and D or L forms follow the SMILES beside them. Triazole bridges read from a SMILES are 1,4-linked. *: point of attachment. Benzoyl(3,5-(OH)2) = O=C(c1cc(O)cc(O)c1)*; Lys(N3) = [N-]=[N+]=NCCCC[C@H](N)C(=O)O; dPhe(4-F) = N[C@H](Cc1ccc(F)cc1)C(=O)O; Aad = N[C@@H](CCCC(=O)O)C(=O)O; Nle = CCCC[C@H](N)C(=O)O; Pra = C#CC[C@H](N)C(=O)O
Field: EC50. Provide a value for each of the molecules that follow.
Give bare numbers, in nM.

Consider the worked cases shown below.
molecule	targetOfAssay	unitTag	val
CCCC[C@H](NC(C)=O)C(=O)N[C@H]1CCCCn2cc(nn2)C[C@@H](C(N)=O)NC(=O)[C@H](Cc2c[nH]c3ccccc23)NC(=O)[C@H](CCCNC(=N)N)NC(=O)[C@@H](Cc2ccccc2)NC(=O)[C@H](Cc2cnc[nH]2)NC1=O [KR-009] (Ac-[Nle][Lys(N3)]H[dF]RW[Pra]-NH2; triazole 2-7)	human recombinant MC5R (Homo sapiens)	nM	140
CCCC[C@H](NC(=O)c1cc(O)cc(O)c1)C(=O)N[C@H]1CCCCn2cc(nn2)C[C@@H](C(N)=O)NC(=O)[C@H](Cc2c[nH]c3ccccc23)NC(=O)[C@H](CCCNC(=N)N)NC(=O)[C@@H](Cc2ccccc2)NC(=O)[C@H](Cc2c[nH]cn2)NC1=O [KR-073] ({Benzoyl(3,5-(OH)2)}-[Nle][Lys(N3)]H[dF]RW[Pra]-NH2; triazole 2-7)	human recombinant MC5R (Homo sapiens)	nM	134
CCCC[C@H](NC(=O)c1cc(O)cc(O)c1)C(=O)N[C@H]1CCCCn2cc(nn2)C[C@@H](C(=O)N[C@@H](CCCC(N)=O)C(N)=O)NC(=O)[C@H](Cc2c[nH]c3ccccc23)NC(=O)[C@H](CCCNC(=N)N)NC(=O)[C@@H](Cc2ccc(F)cc2)NC(=O)[C@H](Cc2c[nH]cn2)NC1=O [KR-071] ({Benzoyl(3,5-(OH)2)}-[Nle][Lys(N3)]H[dPhe(4-F)]RW[Pra][Aad](NH2)-NH2; triazole 2-7)	human recombinant MC5R (Homo sapiens)	nM	73.9

For every record below, what is its EC50?
1. CCCC[C@H](NC(C)=O)C(=O)N[C@H]1CCCCn2cc(nn2)C[C@@H](C(N)=O)NC(=O)[C@H](Cc2c[nH]c3ccccc23)NC(=O)[C@H](CCCNC(=N)N)NC(=O)[C@@H](Cc2ccc(F)cc2)NC(=O)[C@H](Cc2c[nH]cn2)NC1=O [KR-049] (Ac-[Nle][Lys(N3)]H[dPhe(4-F)]RW[Pra]-NH2; triazole 2-7)
2. CCCC[C@H](NC(=O)c1cc(O)cc(O)c1)C(=O)N[C@H]1CCCCn2cc(nn2)C[C@@H](C(N)=O)NC(=O)[C@H](Cc2c[nH]c3ccccc23)NC(=O)[C@H](CCCNC(=N)N)NC(=O)[C@@H](Cc2ccc(F)cc2)NC(=O)[C@H](Cc2c[nH]cn2)NC1=O [KR-072] ({Benzoyl(3,5-(OH)2)}-[Nle][Lys(N3)]H[dPhe(4-F)]RW[Pra]-NH2; triazole 2-7)

1. 25.2
2. 78

* * *

molecular target: human recombinant MC5R (Homo sapiens, UniProt P33032); construct: host or cells: CHO-K1/Ga15; assay: Ca2+ signalling functional assay, MC5R stable cell line (CHO-K1/Ga15); assay type: cell-based; conditions: calcium flux functional assay
Sequence (P33032 whole entry): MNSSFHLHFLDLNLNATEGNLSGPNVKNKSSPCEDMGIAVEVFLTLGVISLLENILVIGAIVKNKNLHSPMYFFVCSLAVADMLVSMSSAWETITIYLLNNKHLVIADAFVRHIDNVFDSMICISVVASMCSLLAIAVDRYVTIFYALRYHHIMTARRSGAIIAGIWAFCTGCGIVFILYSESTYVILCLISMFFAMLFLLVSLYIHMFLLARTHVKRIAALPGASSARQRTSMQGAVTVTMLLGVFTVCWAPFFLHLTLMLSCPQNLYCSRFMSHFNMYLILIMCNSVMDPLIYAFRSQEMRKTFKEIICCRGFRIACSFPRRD
pIC50: −log10 of the molar value.
observable: pIC50

Requested read-out: pIC50. Entry: Ac-EHFRWGKP-NH2 [KR-007]
< 5.00

* * *

assay: In vivo topical administration pharmacokinetics of K173, rabbit (aqueous humor, cornea); conditions: aqueous humor, topical or ocular, 5 mg/ml solution, 35 L per eye, Group 3 (8 BID doses), topical 5 mg/ml, 8 hr post-last dose, OS, Mean, read-out: K173 Concentrations (ng/mL) in Rabbit Aqueous Humor OS Sample, Mean
Positions of bridges follow the written chain, without caps; N, C: chain ends. Non-standard residues stand in square brackets, D forms with d. Residues, ends and D or L forms follow the SMILES beside them. Triazole bridges read from a SMILES are 1,4-linked. *: point of attachment. Benzoyl(3,5-(OH)2) = O=C(c1cc(O)cc(O)c1)*; Lys(N3) = [N-]=[N+]=NCCCC[C@H](N)C(=O)O; dPhe(4-F) = N[C@H](Cc1ccc(F)cc1)C(=O)O; Nle = CCCC[C@H](N)C(=O)O; Pra = C#CC[C@H](N)C(=O)O
observable: level at 8 h (ng/mL)
Give bare numbers, in ng/mL.

Look up level at 8 h for this molecule: CCCC[C@H](NC(=O)c1cc(O)cc(O)c1)C(=O)N[C@H]1CCCCn2cc(nn2)C[C@@H](C(N)=O)NC(=O)[C@H](Cc2c[nH]c3ccccc23)NC(=O)[C@H](CCCNC(=N)N)NC(=O)[C@@H](Cc2ccc(F)cc2)NC(=O)[C@H](Cc2c[nH]cn2)NC1=O [KR-072] ({Benzoyl(3,5-(OH)2)}-[Nle][Lys(N3)]H[dPhe(4-F)]RW[Pra]-NH2; triazole 2-7)
6.42

* * *

biological target: human recombinant MC1R (Homo sapiens); construct: host or cells: CHO-K1; test: cyclic AMP (cAMP) functional assay, MC1R stable cell line (CHO-K1); assay type: cell-based;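 note: cells with test compound for 60 min at room temperature in buffer containing IBMX, then cAMP quantified by Eu-cAMP tracer and ULight anti-cAMP detection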
Sequence (Q01726 whole entry): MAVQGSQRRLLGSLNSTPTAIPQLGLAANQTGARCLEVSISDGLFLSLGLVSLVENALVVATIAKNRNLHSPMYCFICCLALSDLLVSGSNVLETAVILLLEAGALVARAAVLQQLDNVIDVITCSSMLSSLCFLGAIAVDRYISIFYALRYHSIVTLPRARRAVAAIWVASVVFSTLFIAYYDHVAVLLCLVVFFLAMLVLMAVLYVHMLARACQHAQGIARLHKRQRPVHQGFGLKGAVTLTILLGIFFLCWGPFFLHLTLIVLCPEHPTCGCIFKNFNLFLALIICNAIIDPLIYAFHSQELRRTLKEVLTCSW
Positions of bridges follow the written chain, without caps; N, C: chain ends. Non-standard residues stand in square brackets, D forms with d. Residues, ends and D or L forms follow the SMILES beside them. Triazole bridges read from a SMILES are 1,4-linked. *: point of attachment. Benzoyl(3,5-(OH)2) = O=C(c1cc(O)cc(O)c1)*; Lys(N3) = [N-]=[N+]=NCCCC[C@H](N)C(=O)O; dPhe(4-F) = N[C@H](Cc1ccc(F)cc1)C(=O)O; Aad = N[C@@H](CCCC(=O)O)C(=O)O; Nle = CCCC[C@H](N)C(=O)O; Pra = C#CC[C@H](N)C(=O)O
Hi there, I'd appreciate the recorded EC50 for every entry that follows.
Numbers only, in nM.

molecule	targetOfAssay	observable	val
CCCC[C@H](NC(=O)c1cc(O)cc(O)c1)C(=O)N[C@H]1CCCCn2cc(nn2)C[C@@H](C(=O)N[C@@H](CCCC(N)=O)C(N)=O)NC(=O)[C@H](Cc2c[nH]c3ccccc23)NC(=O)[C@H](CCCNC(=N)N)NC(=O)[C@@H](Cc2ccc(F)cc2)NC(=O)[C@H](Cc2c[nH]cn2)NC1=O [KR-071] ({Benzoyl(3,5-(OH)2)}-[Nle][Lys(N3)]H[dPhe(4-F)]RW[Pra][Aad](NH2)-NH2; triazole 2-7)	human recombinant MC1R (Homo sapiens)	EC50	0.0023

For each listed entry, give its EC50.
1. CCCC[C@H](NC(=O)c1cc(O)cc(O)c1)C(=O)N[C@H]1CCCCn2cc(nn2)C[C@@H](C(N)=O)NC(=O)[C@H](Cc2c[nH]c3ccccc23)NC(=O)[C@H](CCCNC(=N)N)NC(=O)[C@@H](Cc2ccc(F)cc2)NC(=O)[C@H](Cc2c[nH]cn2)NC1=O [KR-072] ({Benzoyl(3,5-(OH)2)}-[Nle][Lys(N3)]H[dPhe(4-F)]RW[Pra]-NH2; triazole 2-7)
2. CCCC[C@H](NC(=O)c1cc(O)cc(O)c1)C(=O)N[C@H]1CCCCn2cc(nn2)C[C@@H](C(N)=O)NC(=O)[C@H](Cc2c[nH]c3ccccc23)NC(=O)[C@H](CCCNC(=N)N)NC(=O)[C@@H](Cc2ccccc2)NC(=O)[C@H](Cc2c[nH]cn2)NC1=O [KR-073] ({Benzoyl(3,5-(OH)2)}-[Nle][Lys(N3)]H[dF]RW[Pra]-NH2; triazole 2-7)

0.0019
0.0041
